Test: Primary qHTS for delayed death inhibitors of the malarial parasite plastid, 96 hour incubation
Conditions: P. falciparum luciferase reporter growth; series mostly up to 28.7 µM
Hit rate of the full screen: of about 320,000 compounds, about 22,000 (6.9%) were called active. Inconclusive results (about 27%) are left out. Many of the other results were omitted from the sample, so actives are more common in it than they were.
reported metric: outcome

1. Cc1ccn2c(c1)nc(=O)c1cc(S(=O)(=O)N3CCC(C)CC3)ccc12: inactive
2. CCOC(=O)C1=C(c2ccccc2)NC(=S)NC1c1ccc(Cl)cc1 (stereo not drawn): inactive
3. O=C(c1cccc(Br)c1)N1CCN(C2=NS(=O)(=O)c3ccccc32)CC1: inactive
